test-protocol: Pharmacokinetics in male Han Wistar rats, intravenous and oral
Format: in vivo
experimental-setup: male, Han Wistar, rat, plasma, po, 2 mg/kg, after oral administration, read-out: absolute oral bioavailability F
reported-property: bioavailability (%)
Output spec: scalar in %, unitless text.

Per the record, O=C(O)c1ccc(C2(NC(=O)c3cc(Cl)cnc3N3CC(Oc4cccc(F)c4)C3)CC2)cc1 has bioavailability of 90

----------
Exercise: for every item that follows, state its recorded pIC50.
target-or-test-system: human EP4 receptor (Homo sapiens, UniProt P35408)
Construct: membrane fraction used
Sequence (P35408 whole entry): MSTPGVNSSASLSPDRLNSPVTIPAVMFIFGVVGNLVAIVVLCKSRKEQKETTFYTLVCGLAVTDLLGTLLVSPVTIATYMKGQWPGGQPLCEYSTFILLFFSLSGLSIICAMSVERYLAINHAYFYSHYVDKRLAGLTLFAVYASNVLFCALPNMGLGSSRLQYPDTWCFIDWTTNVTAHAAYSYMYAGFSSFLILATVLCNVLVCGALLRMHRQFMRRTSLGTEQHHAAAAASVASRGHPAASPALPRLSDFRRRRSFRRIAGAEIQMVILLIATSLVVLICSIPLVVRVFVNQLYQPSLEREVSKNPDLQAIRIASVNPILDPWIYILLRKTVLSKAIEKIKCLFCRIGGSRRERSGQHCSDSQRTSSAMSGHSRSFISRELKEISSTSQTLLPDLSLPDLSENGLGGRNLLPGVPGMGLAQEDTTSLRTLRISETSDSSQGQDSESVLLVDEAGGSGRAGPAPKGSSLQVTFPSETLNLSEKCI
test-protocol: cAMP assay (AlphaScreen) on human EP4 membrane of transfected cells, antagonism of PGE2
experimental-setup: HEK293 hEP4 cell membrane stimulated with PGE2 3 nM; read-out: functional IC50
Field pIC50 (float): negative decimal logarithm of the concentration in molar.

Per the record, O=C(O)c1ccc(C2(NC(=O)c3cc(F)cnc3N3CC(Oc4cccc(F)c4)C3)CC2)cc1 has pIC50 of 7.10

Per the record, O=C(O)c1ccc(C2(NC(=O)c3cc(F)cnc3N3CC(Oc4cccc(OC(F)(F)F)c4)C3)CC2)cc1 has pIC50 of 6.90

Per the record, O=C(O)c1ccc(C2(NC(=O)c3cc(C(F)(F)F)cnc3N3CC(Nc4ccc(F)cc4F)C3)CC2)cc1 has pIC50 of 7.13

Per the record, O=C(O)c1ccc(C2(NC(=O)c3cc(F)cnc3N3CC(Oc4cccc(Cl)c4)C3)CC2)cc1 has pIC50 of 7.12

Per the record, O=C(O)c1ccc(C2(NC(=O)c3cc(Cl)cnc3N3CCC(Oc4ccc(F)cc4)C3)CC2)cc1 (single isomer, unassigned) [E 68] has pIC50 of 7.18

Per the record, O=C(O)c1ccc(C2(NC(=O)c3cc(Cl)cnc3N3CC(C(=O)c4cccc(F)c4)C3)CC2)cc1 has pIC50 of 6.87

Per the record, O=C(O)c1ccc(CNC(=O)c2cc(Cl)cnc2N2CC(Oc3cccc(F)c3)C2)cc1 has pIC50 of 6.92

Per the record, O=C(O)c1ccc(C2(NC(=O)c3cc(Cl)cnc3N3CC(Oc4ccc(F)c(F)c4)C3)CC2)cc1 has pIC50 of 7.15

Per the record, O=C(O)c1ccc(C2(NC(=O)c3cc(Cl)cnc3N3CC(Nc4cccc(F)c4)C3)CC2)cc1 has pIC50 of 7.12

----------
target-or-test-system: human EP4 receptor (Homo sapiens, UniProt P35408)
Construct: membrane fraction used
test-protocol: cAMP assay (AlphaScreen) on human EP4 membrane of transfected cells, antagonism of PGE2
experimental-setup: HEK293 hEP4 cell membrane stimulated with PGE2 3 nM; read-out: functional IC50
Method: Stable Expression of Human EP4 Receptors in the Human Embryonic Kidney (HEK293) Cell Line The cDNA clone of human EP4 receptor (NM_000958.2) was obtained from Invitrogen™: Ultimate™ ORF Clone Collection—Clone ID IOH46525. […] Antagonism studies were performed stimulating HEK293 cell membrane with PGE2 3 nM. The AlphaScreen signal is plotted as a function of log concentration of cAMP and functional IC50 is determined. IC50 value is calculated by linear regression. […]
reported-property: pIC50
Field pIC50 (float): negative decimal logarithm of the concentration in molar.

Per the record, C[C@H](NC(=O)c1cc(Cl)cnc1N1CC(Oc2cccc(F)c2)C1)c1ccc(C(=O)O)cc1 has pIC50 of 6.99

Per the record, O=C(O)c1ccc(C2(NC(=O)c3cc(Cl)cnc3N3CC(Oc4ccc(F)cc4)C3)CC2)cc1 has pIC50 of 7.15

Per the record, O=C(O)c1ccc(C2(NC(=O)c3cc(Cl)cnc3N3CCC(Oc4cccc(C(F)(F)F)c4)C3)CC2)cc1 (single isomer, unassigned) [E 64] has pIC50 of 7.00

Per the record, O=C(O)c1ccc(C2(NC(=O)c3cc(Cl)cnc3N3CCC(Oc4cccc(C(F)(F)F)c4)C3)CC2)cc1 (single isomer, unassigned) [E 63] has pIC50 of 6.84

Per the record, O=C(O)c1ccc(C2(NC(=O)c3cc(Cl)cnc3N3CCCC3c3ccccc3)CC2)cc1 (single isomer, unassigned) [E 3] has pIC50 of 6.88

Per the record, O=C(O)c1ccc(C2(NC(=O)c3cc(Cl)cnc3N3CCC[C@@H]3COc3cccc(F)c3)CC2)cc1 has pIC50 of 7.05
